Assay: Adsorption to aluminium hydroxide (Al—H) adjuvant, supernatant by HPLC
Assay type: physicochemical
Conditions: 10 mM histidine buffer, pH 6.5
readout: % adsorption to Al—H (%)
One number for each entry, in %.

compound	measurementUnits	% adsorption to Al—H
CCOCc1nc2c(N)nc3ccccc3c2n1CCOCCOCCOCCP(=O)(O)O [Compound 68]	%	94
CCCCCNc1nc(N)nc(C)c1Cc1ccc(OCCOCCC(F)(F)P(=O)(O)O)cc1OC [Compound 71]	%	85
Cc1cc(OCCOCCOCCC(F)(F)P(=O)(O)O)ccc1CCc1cnc2c(N)nc3cc(CCC(=O)O)ccc3c2c1 [Compound 4]	%	96.0

Give measured % adsorption to Al—H for every item shown.
1. COCCOc1cc2c(nc(O)n2Cc2ccc(CP(=O)(O)O)cc2)c(N)n1 [Compound 67]
2. Cc1cc(OCCCC(F)(F)P(=O)(O)O)ccc1CCc1cnc2c(N)nc3cc(CCC(=O)O)ccc3c2c1 [Compound 3]

1: 82; 2: 96.2

Where these numbers come from: patent US10098949B2
